All figures here come from ChEMBL document CHEMBL5321222.

System: RKO
protocol.notes: Induction of apoptosis in human RKO cells assessed as early apoptotic cells at 0.2 uM incubated for 24 hrs by propidium iodide and Annexin V/FITC staining based flow cytometry assay (reference value: 0.16%)
Type: functional
readout: Activity (%)

{"compound": "CN1c2ccccc2C(=O)N2CCc3c([nH]c4ccccc34)C21 (racemic)", "quantitative.result": 4.63}
{"compound": "COc1cc2c(c(OC)c1OC)-c1ccc(OC)c(=O)cc1[C@@H](NC(C)=O)CC2", "quantitative.result": 5.3}
{"compound": "CC[C@@]1(O)C(=O)OCc2c1cc1n(c2=O)Cc2cc3c(CN(C)C)c(O)ccc3nc2-1", "quantitative.result": 14.2}
{"compound": "CCCN1c2ccccc2C(=O)N2CCc3c([nH]c4ccccc34)C21 (centres undefined)", "quantitative.result": 14.35}

* * *

target.or.system: Tubulin
protocol.notes: Inhibition of tubulin polymerization (unknown origin) measured every minute
pIC50: −log10 of the molar value.
readout: pIC50

{"compound": "CCCN1c2ccccc2C(=O)N2CCc3c([nH]c4ccccc34)C21 (stereo unspecified)", "quantitative.result": 5.24}
